Please respond with reported pIC50 for every item in the list.
# target-or-system: CCK-B (Cavia porcellus)
# Construct: guinea pig brain (CCK-B); from tissue; host or cells: guinea pig brain
# Sequence (H0VZC5 1-426): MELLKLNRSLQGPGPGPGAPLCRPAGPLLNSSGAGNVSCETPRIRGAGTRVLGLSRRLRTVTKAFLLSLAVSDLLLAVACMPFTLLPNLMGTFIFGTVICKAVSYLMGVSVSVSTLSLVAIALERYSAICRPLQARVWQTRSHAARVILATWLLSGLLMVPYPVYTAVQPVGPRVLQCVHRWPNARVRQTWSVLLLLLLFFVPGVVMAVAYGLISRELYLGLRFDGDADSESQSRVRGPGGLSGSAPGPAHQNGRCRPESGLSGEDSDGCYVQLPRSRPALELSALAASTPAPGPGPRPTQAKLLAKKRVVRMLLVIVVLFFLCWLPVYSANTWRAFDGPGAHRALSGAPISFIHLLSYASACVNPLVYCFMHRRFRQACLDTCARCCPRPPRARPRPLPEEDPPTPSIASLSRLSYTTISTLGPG
# assay-info: displacement of specific 125I-CCK from guinea pig brain (CCK-B receptor binding)
# test-conditions: read-out: CCK RECEPTOR BINDING RESULTS IC50 125I-CCK Brain
Structures can show the parent of a compound that is named as a salt.
Numbers only, as −log10 of the molar value.

- molecule: "CCN(C1=NC(NC(=O)Nc2cccc(C)c2)C(=O)N(C)c2ccccc21)C1CCCCC1 (racemic) [Example 78]"
  target-or-system: "CCK-B (Cavia porcellus)"
  pIC50: 8.35
- molecule: "Cc1cccc(NC(=O)NC2N=C(N(C)CC3CCCCC3)c3ccccc3N(C)C2=O)c1 (racemic) [Example 74]"
  target-or-system: "CCK-B (Cavia porcellus)"
  pIC50: 8.14
- molecule: "C[C@@H]1CCC[C@H](C)N1C1=NC(NC(=O)Nc2ccc3c(c2)CCC3)C(=O)N(C)c2ccccc21 (stereo partly shown) [Example 13]"
  target-or-system: "CCK-B (Cavia porcellus)"
  pIC50: 8.82
- molecule: "Cc1cccc(NC(=O)NC2N=C(N(C)C3CCCCC3)c3ccccc3N(C)C2=O)c1 (single isomer, unassigned; (-)) [Example 64, Hydrochloride]"
  target-or-system: "CCK-B (Cavia porcellus)"
  pIC50: 9.66
- molecule: "Cc1cccc(NC(=O)NC2N=C(N3CCC(C)(C)CC3)c3ccccc3N(CC(F)(F)F)C2=O)c1 (single isomer, unassigned) [28 (enantiomer A)]"
  target-or-system: "CCK-B (Cavia porcellus)"
  pIC50: 7.56

Here are 6 molecules. What values of pIC50 were reported for them?
1. Cc1cccc(NC(=O)NC2N=C(N3CC4CCC(C4)C3)c3ccccc3N(C)C2=O)c1 (racemic) [Example 38]
2. Cc1cccc(NC(=O)NC2N=C(N(C)C3CCC(C)(C)CC3)c3ccccc3N(C)C2=O)c1 (racemic) [Example 77]
3. Cc1cccc(NC(=O)NC2N=C(N3CC4CCC(C4)C3)c3ccccc3N(C)C2=O)c1 (single isomer, unassigned; (+)) [Example 40, Hydrochloride]
4. Cc1cccc(NC(=O)NC2N=C(N3[C@H](C)CCC[C@@H]3C)c3ccccc3N(C)C2=O)c1 (stereo partly shown) [Example 6]
5. Cc1cccc(NC(=O)NC2N=C(N3C[C@@H](C)O[C@@H](C)C3)c3ccccc3N(C)C2=O)c1 (stereo partly shown) [Example 16]
6. Cc1cccc(NC(=O)NC2N=C(N(C)C3CCCCC3)c3ccccc3N(C)C2=O)c1 (racemic) [Example 63]

1. 9.15
2. 7.09
3. 7.44
4. 7.96
5. 7.72
6. 8.87

Here are 2 molecules. What values of pIC50 were reported for them?
1. C[C@@H]1CCC[C@H](C)N1C1=NC(NC(=O)Nc2ccc3c(c2)CCC3)C(=O)N(C)c2ccccc21 (single isomer, unassigned) [15 (enantiomer B)]
2. CN1C(=O)C(NC(=O)c2cc3ccccc3[nH]2)N=C(N2CC3CCC(CC3)C2)c2ccccc21 (single isomer, unassigned; (+)) [Example 89, dihydrochloride]

7.12
6.19
